Assay: chemical genetic growth profiling, strain panel (AID 1159580);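 further: tested at 20 µM; growth read once vehicle control cultures reached saturation at 30 °C; 1 = growth at the plate median or of vehicle wells; lower values mean less growth of the strain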
Conditions: S. cerevisiae deletion strains, growth OD, locus YDR150W, strain NUM1, active compounds read low
The whole screen tested about 5,500 compounds, of which about 2,000 (36%) were called active. Another 18% or so got no clear call; they are omitted. This is one part of the list.
readout.label: normalized growth
Please state the value as a number alone, without comment.

Task item: Note normalized growth for the molecule shown: CCC1(O)CC2CN(CCc3c([nH]c4ccccc34)[C@@](C(=O)OC)(c3cc4c(cc3OC)N(C)C3[C@]45CCN4CC=C[C@@](CC)([C@@H](OC(C)=O)[C@]3(O)C(=O)OC)[C@H]45)C2)C1 (some centres not stated)
Reply: 1.01

Task item: Note normalized growth for the molecule shown: `O=C(O)c1cccnc1`
Reply: 0.983

Task item: Note normalized growth for the molecule shown: `C=C/C(C)=C/[C@@]1(C)SC(=O)C(C)=C1O`
Reply: 1.01

Task item: Note normalized growth for the molecule shown: `CCCN(CCC)S(=O)(=O)c1ccc(C(=O)O)cc1`
Reply: 0.998

Task item: Note normalized growth for the molecule shown: `Cc1onc(-c2c(Cl)cccc2Cl)c1NC(=O)O/N=C\c1ccc(N(C)C)cc1`
Reply: 0.693

Task item: Note normalized growth for the molecule shown: `CCCCCCc1cc2c(C)cc(=O)oc2cc1O`
Reply: 0.996

Task item: Note normalized growth for the molecule shown: `C(=C(c1ccccc1)c1ccccc1)N1CCC1`
Reply: 0.87

Task item: Note normalized growth for the molecule shown: NC(Cn1ccc(=O)c(O)c1)C(=O)O (configuration not stated)
Reply: 1.01

Task item: Note normalized growth for the molecule shown: CCCN1CC(CSC)CC2c3cccc4[nH]cc(c34)CC21 (configuration not stated)
Reply: 0.997

Task item: Note normalized growth for the molecule shown: `Cc1cn[nH]c1`
Reply: 0.986

Task item: Note normalized growth for the molecule shown: CC(C)CCCC(C)C1CC[C@@]2(C)C3=C(CC[C@]12C)[C@@]1(C)CC[C@H](O)C(C)(C)C1CC3 (some centres not stated)
Reply: 1

Task item: Note normalized growth for the molecule shown: `O=C1NC(O)=NC1(c1ccccc1)c1ccccc1`
Reply: 1.01

Task item: Note normalized growth for the molecule shown: `O=C(NCO)c1cccnc1`
Reply: 0.98

Task item: Note normalized growth for the molecule shown: `O=C(O)c1cc[c]([Hg][Cl])cc1`
Reply: 1

Task item: Note normalized growth for the molecule shown: `COC(=O)/C(=C1\OC(=O)C(c2ccccc2)=C1O)c1ccccc1`
Reply: 0.987

Task item: Note normalized growth for the molecule shown: `Cc1ccc(Sc2ccc([N+](=O)[O-])cc2/C=C2\SC(=S)NC2=O)cc1`
Reply: 0.982

Task item: Note normalized growth for the molecule shown: `O=C(O)c1ccc(S(=O)(=O)N(Cl)Cl)cc1`
Reply: 1

Task item: Note normalized growth for the molecule shown: CC(C)=CCCC(C)C1CC[C@@]2(C)C3=C(CC[C@]12C)C1(C)CC[C@H](O)C(C)(C)C1CC3 (some centres not stated)
Reply: 1.05

Task item: Note normalized growth for the molecule shown: CCN1CCN(C(=O)NC(C(=O)N[C@@H]2C(=O)N3[C@@H]2SC(C)(C)[C@@H]3C(=O)O)c2ccccc2)C(=O)C1=O (some centres not stated)
Reply: 1.02

Task item: Note normalized growth for the molecule shown: Cc1c(C)c2c(c(C)c1O)CCC(C)(CCCC(C)CCCC(C)CCCC(C)C)O2 (configuration not stated)
Reply: 1.01

Task item: Note normalized growth for the molecule shown: CC(C)CC(NC(=O)OCC1c2ccccc2-c2ccccc21)C(=O)O (configuration not stated)
Reply: 0.995

Task item: Note normalized growth for the molecule shown: CC12CCC(=O)C=C1CCC1C2[C@@H](O)CC2(C)C1CC[C@]2(O)C(=O)COP(=O)(O)O (some centres not stated)
Reply: 1.02

---

Record form. Attribute: normalized growth. Fill in for each entry.
Assay: chemical genetic growth profiling, strain panel (AID 1159580);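 further: tested at 20 µM; growth read once vehicle control cultures reached saturation at 30 °C; 1 = growth at the plate median or of vehicle wells; lower values mean less growth of the strain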
Settings: S. cerevisiae deletion strains, growth OD, locus YKL068W, active compounds read low
Screen size: about 5,500 compounds; about 2,000 (36%) were called active. Not shown: some 18% with an inconclusive outcome. The list shows a part of the results.
Please state the value as a number alone, without comment.

Task item: Note normalized growth for the molecule shown: CC(=O)OC1CCC2(C)C(CC(OC(C)=O)C3(C)C4=CC(=O)OC(c5ccoc5)C4(C)CCC23)C1(C)C (stereo unspecified)
Reply: 0.982

Task item: Note normalized growth for the molecule shown: `CCCSc1ccc2nc(NC(=O)OC)[nH]c2c1`
Reply: 0.972

Task item: Note normalized growth for the molecule shown: CC(=O)O[C@H]1CC[C@@]2(C)C(C[C@@H](OC(C)=O)[C@@]3(C)C4=CC(=O)O[C@@H](c5ccoc5)[C@]4(C)CCC23)C1(C)C (stereo partly specified)
Reply: 0.984

Task item: Note normalized growth for the molecule shown: `N[C@@H](CCC(=O)N[C@@H](CS)C(=O)NCC(=O)O)C(=O)O`
Reply: 0.996

Task item: Note normalized growth for the molecule shown: CC(=O)O[C@@H]1CC2C(C)(C)[C@H](O)C=C[C@]2(C)C2CC[C@]3(C)C(=CC(=O)O[C@H]3c3ccoc3)[C@@]21C (stereo partly specified)
Reply: 1.01

Task item: Note normalized growth for the molecule shown: `CC(=O)Oc1ccc(O)cc1`
Reply: 1.01

Task item: Note normalized growth for the molecule shown: `COC(=O)c1c(C)c2c(c(C)c1O)OC(=O)c1c(C)c(Cl)c(O)c(Cl)c1O2`
Reply: 1

Task item: Note normalized growth for the molecule shown: C=C(C)C1(O)OC(=O)C=C1OC (stereo unspecified)
Reply: 0.965

Task item: Note normalized growth for the molecule shown: `CC(=O)Oc1ccc(C(c2ccc(OC(C)=O)cc2)c2ccccn2)cc1`
Reply: 1

Task item: Note normalized growth for the molecule shown: `O=C(O)C1=CCCNC1`
Reply: 1

Task item: Note normalized growth for the molecule shown: `COc1c(C)c2c(c(C)c1Cl)Oc1c(Cl)c(OC)c(Cl)c(C)c1C(=O)O2`
Reply: 1.01

Task item: Note normalized growth for the molecule shown: Cc1ccc2c(c1)C1(C)CCCC(C)(C(=O)O)C1CC2 (stereo unspecified)
Reply: 0.982

Task item: Note normalized growth for the molecule shown: `CCCN(CCC)S(=O)(=O)c1ccc(C(=O)O)cc1`
Reply: 0.998

Task item: Note normalized growth for the molecule shown: CC(C)c1ccc2c(c1)CCC1[C@](C)(CN)CCC[C@]21C (stereo partly specified)
Reply: 0.982

Task item: Note normalized growth for the molecule shown: CC(=O)O[C@@H]1CC[C@@]2(C)C(C[C@@H](OC(C)=O)[C@@]3(C)C4=CC(=O)O[C@@H](c5ccoc5)[C@]4(C)CCC23)C1(C)C (stereo partly specified)
Reply: 1

Task item: Note normalized growth for the molecule shown: `CC(=O)Oc1ccc(/C=C/c2cc(OC(C)=O)cc(OC(C)=O)c2)cc1`
Reply: 1

Task item: Note normalized growth for the molecule shown: `CN(C)C(=O)Oc1cccc([N+](C)(C)C)c1`
Reply: 0.988

Task item: Note normalized growth for the molecule shown: `COC(=O)c1c(OC)cc2c(c1C)Oc1c(Cl)c(O)c(Cl)c(C)c1C(=O)O2`
Reply: 0.976

Task item: Note normalized growth for the molecule shown: `CC(=O)Oc1cccc(O)c1`
Reply: 1

Task item: Note normalized growth for the molecule shown: CC12CCC(=O)C=C1CCC1C2[C@@H](O)CC2(C)C1CC[C@]2(O)C(=O)COP(=O)(O)O (stereo partly specified)
Reply: 1.01

Task item: Note normalized growth for the molecule shown: `COc1cc(C/C=C/c2ccccc2)c(OC)cc1O`
Reply: 0.954

---

Test: chemical genetic growth profiling, strain panel (AID 1159580);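 further: tested at 20 µM; growth read once vehicle control cultures reached saturation at 30 °C; 1 = growth at the plate median or of vehicle wells; lower values mean less growth of the strain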
Details: S. cerevisiae deletion strains, growth OD, locus YLR113W, strain HOG1
About 2,000 (36%) of roughly 5,500 compounds were called active. Roughly 18% stayed inconclusive and do not appear here. Rule as the data show it: active = normalized growth mostly below about 0.91 (no sharp cut-off); inconclusive = no clear call, values can overlap the other calls; inactive = mostly above about 0.92. The list shows a part of the results.
// allowed return values: yes (active), no (inactive)

Task item: Check the results log: what was the call for `Cc1cc(/C(N)=N\OC(=O)C(C)(C)C)cc(/C(N)=N\OC(=O)C(C)(C)C)c1` ?
Reply: yes

Task item: Check the results log: what was the call for `COc1c(Br)csc1C(=O)O/N=C(/N)c1cc(C(F)(F)F)cc(C(F)(F)F)c1` ?
Reply: no

Task item: Check the results log: what was the call for CCC(C)[C@H]1O[C@]2(CC[C@@H]1C)C[C@@H]1C[C@@H](C/C=C(\C)[C@@H](OC3C[C@H](OC)C(O[C@H]4C[C@H](OC)[C@@H](O)[C@H](C)O4)[C@H](C)O3)[C@@H](C)/C=C/C=C3\CO[C@@H]4[C@H](O)C(C)=C[C@@H](C(=O)O1)[C@]34O)O2 (stereo partly drawn) ?
Reply: no

---

Assay: chemical genetic growth profiling, strain panel (AID 1159580);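 further: tested at 20 µM; growth read once vehicle control cultures reached saturation at 30 °C; 1 = growth at the plate median or of vehicle wells; lower values mean less growth of the strain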
Details: S. cerevisiae deletion strains, growth OD, locus YPL078C, strain atp4, active compounds read low
Out of some 5,500 compounds screened, about 2,000 (36%) were called active. Not shown: some 18% with an inconclusive outcome. This is one part of the list.
Record form. Attribute: normalized growth. Fill in for each entry.
Please state the value as a number alone, without comment.

Task item: Note normalized growth for the molecule shown: CC(C)NCC(O)COc1ccc(COCCOC(C)C)cc1 (stereo not drawn)
Reply: 1.01

Task item: Note normalized growth for the molecule shown: `CN(C)[C@@H]1C(=O)C(C(=O)NCN2CCCC2)=C(O)[C@@]2(O)C(=O)C3=C(O)c4c(O)cccc4[C@@](C)(O)[C@H]3C[C@@H]12`
Reply: 1

Task item: Note normalized growth for the molecule shown: `CN(C)[C@@H]1C(=O)C(C(N)=O)=C(O)[C@@]2(O)C(=O)C3=C(O)c4c(O)ccc(Cl)c4[C@@](C)(O)[C@H]3C[C@@H]12`
Reply: 0.958

Task item: Note normalized growth for the molecule shown: `O=C(O)C1=CCCNC1`
Reply: 1.01

Task item: Note normalized growth for the molecule shown: `CNCCCC12CCC(c3ccccc31)c1ccccc12`
Reply: 0.967

Task item: Note normalized growth for the molecule shown: `C=C1C[C@]23C[C@@]1(O)CC[C@H]2[C@@]12C=C[C@H](O)[C@@](C)(C(=O)O1)[C@H]2[C@@H]3C(=O)O`
Reply: 0.995

Task item: Note normalized growth for the molecule shown: CC1(C)CC2C1CC[C@]1(C)CCC3C(C(=O)O)CC(=O)O[C@@]32C1 (stereo partly drawn)
Reply: 1.07

Task item: Note normalized growth for the molecule shown: `OC[C@H]1O[C@@](CO)(O[C@@H]2O[C@H](CO)[C@@H](O)[C@H](O)[C@H]2O)[C@@H](O[C@@H]2O[C@H](CO)[C@@H](O)[C@H](O)[C@H]2O)[C@@H]1O`
Reply: 1
